Items are presented alongside their recorded Population Hoechst High Intensity Objects (%).
test system: Fibroblast; test: Multiplex assay against human fibroblast; format: toxicity, cell-based; details: 12 h, 1 µM, compound concentration 1 uM, replicate 2
Numeric only. Scale: %

Here is how some compounds turned out for Population Hoechst High Intensity Objects (%).
S=C(NCCCc1c[nH]cn1)NCCCN(Cc1ccc(Cl)c(Cl)c1)c1ccc(Br)cn1    4
OCCCNc1cc(-c2ccnc(Nc3cccc(Cl)c3)n2)ccn1    6
COc1cc(OC2CCN(C(C)=O)CC2)ccc1C(=O)N1CCC(N2C(=O)OCc3ccccc32)CC1    3
Nc1nc(CC(=O)Nc2ccc(CCNC[C@H](O)c3ccccc3)cc2)cs1    4
CN1CCC(C(=O)c2cccc(NC(=O)c3c(F)cc(F)cc3F)n2)CC1    2

Let's switch to this compound now.
Data request, read-out Population Hoechst High Intensity Objects (%), for O=C(O)CCC/C=C\CC1C(O)CC(O)C1/C=C/C(O)COc1cccc(Cl)c1 (stereo not given)
2

---

tested on: Fibroblast; test: Multiplex assay against human fibroblast; format: toxicity, cell-based; settings: 24 h, 10 µM, compound concentration 10 uM, replicate 2
Decide by Population Pyknosed Nuclei (%): equal to or exceeding 20% means Criterion met, less means Criterion not met.

S=C(NCCCc1c[nH]cn1)NCCCN(Cc1ccc(Cl)c(Cl)c1)c1ccc(Br)cn1    Criterion not met
Cc1sc2c(c1C)C(c1ccc(Cl)cc1)=N[C@H](CC(=O)OC(C)(C)C)c1nnc(C)n1-2    Criterion met
COc1cc(C(=O)N2CC[C@@H](O)[C@@H](N)C2)cc2nc(-c3cc4ccccc4n3CC3CC3)n(C)c12.Cl    Criterion not met
CCCCCCNC(=O)Nc1ccc(S(=O)(=O)Nc2ccc(CCNC[C@H](O)COc3ccc(O)cc3)cc2)cc1    Criterion not met
CN(C)C/C=C/C(=O)Nc1ccc(C(=O)N2CCCC(Nc3ncc(Cl)c(-c4c[nH]c5ccccc45)n3)C2)cc1 (configuration not stated)    Criterion met
O=C(Nc1cc(-c2ccccc2)nn1-c1ccccc1F)c1ccc([N+](=O)[O-])cc1    Criterion not met

Okay, now this molecule:
For this molecule, is measured Population Pyknosed Nuclei (%) 20% or higher? CC(F)(F)CN1CCOc2c(nn(-c3ccccc3Cl)c2-c2ccc(Cl)cc2)C1=O
Criterion not met

---

test system: Fibroblast; test: Multiplex assay against human fibroblast; assay type: toxicity, cell-based; settings: 24 h, 10 µM, compound concentration 10 uM, replicate 1
Examples of compounds with documented Population Mitochondria Different-Phenotype (%) follow.
Respond numerically; units are % and should not be typed.

CN(C)C/C=C/C(=O)Nc1ccc(C(=O)N2CCCC(Nc3ncc(Cl)c(-c4c[nH]c5ccccc45)n3)C2)cc1 (stereo not drawn)    52
C=CCN1C[C@H](C(=O)N(CCCN(C)C)C(=O)NCC)C[C@@H]2c3cccc4[nH]cc(c34)C[C@H]21 [CABERGOLINE]    7

# ---- query compound ----
For the compound C[C@@H]1CC(=O)Nc2cccc(-c3ccc4c(c3)c(-c3cnn(C)c3)nn4C)c2N1 , what Population Mitochondria Different-Phenotype (%) is on record?
15

---

system: HEK-293T; experiment: Multiplex assay against HEK293T; type: toxicity, cell-based; details: human, 12 h, 1 µM, compound concentration 1 uM, replicate 2
measurement-label: Population Mitochondria Different-Phenotype (%)
Answer format: numeric, % implied, no suffix.

S=C(NCCCc1c[nH]cn1)NCCCN(Cc1ccc(Cl)c(Cl)c1)c1ccc(Br)cn1    58
Cc1cc(-c2ccc3c(c2)CC[C@H]3N2CC3(CCN(C(=O)Cc4cn5cc(C)sc5n4)CC3)C2)ncn1    53
CCn1c(-c2nc3cc(C(=O)N4CCCC(N)C4)ccc3n2C)cc2ccccc21.Cl (stereo not given)    69
COc1cc2nc(N3CCN(C(=O)COc4c(OC)cccc4C(C)C)CC3)nc(N)c2cc1OC.Cl.Cl    58

Kindly consider the entry below.
Entry COc1cc2nc(N3CCN(C(=O)c4ccco4)CC3)nc(N)c2cc1OC.Cl [PRAZOSIN HYDROCHLORIDE] , system HEK-293T: what Population Mitochondria Different-Phenotype (%) was measured?
66
